src = ChEMBL document CHEMBL1150518

Sequence of the target: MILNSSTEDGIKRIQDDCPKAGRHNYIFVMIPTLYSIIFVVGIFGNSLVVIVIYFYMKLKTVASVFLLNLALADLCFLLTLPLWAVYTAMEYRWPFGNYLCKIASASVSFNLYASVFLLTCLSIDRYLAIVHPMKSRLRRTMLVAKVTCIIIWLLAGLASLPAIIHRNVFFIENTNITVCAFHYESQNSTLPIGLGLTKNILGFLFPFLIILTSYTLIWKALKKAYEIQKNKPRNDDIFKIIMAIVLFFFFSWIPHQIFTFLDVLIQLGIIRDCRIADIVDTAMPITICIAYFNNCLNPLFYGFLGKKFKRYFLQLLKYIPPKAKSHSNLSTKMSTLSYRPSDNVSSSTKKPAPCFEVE
pIC50: −log10 of the molar value.
Catalogue of pIC50 readings, one per entry.

compound	pIC50
CCCc1nc(CC)c(C(=O)OCCCN2C(=O)c3ccccc3C2=O)n1Cc1ccc(-c2ccccc2S(=O)(=O)NC(=O)OCCC(C)C)cc1F	10.00
CCCc1nc(CC)c(C(=O)OCc2ccc(C(=O)N(c3ccccc3)c3ccccc3)cc2)n1Cc1ccc(-c2ccccc2-c2nnn[nH]2)cc1	7.70
CCCc1nc(CC)c(C(=O)OCc2cccc(C(=O)c3ccccc3)c2)n1Cc1ccc(-c2ccccc2-c2nn[nH]n2)cc1	8.05
CCCc1nc(CC)c(C(=O)OCc2ccccc2C(=O)c2ccccc2)n1Cc1ccc(-c2ccccc2S(=O)(=O)NC(=O)OC)cc1	9.22
CCCc1nc(CC)c(C(=O)OCCC[S+]([O-])c2ccccc2)n1Cc1ccc(-c2ccccc2S(=O)(=O)NC(=O)OCCC(C)C)cc1F (configuration not stated)	9.70
CCCc1nc(CC)c(C(=O)OCCCC(=O)c2ccccc2)n1Cc1ccc(-c2ccccc2S(=O)(=O)NC(=O)OCCC(C)C)cc1F	10.00
CCCc1nc(CC)c(C(=O)OCc2ccccc2-c2ccccn2)n1Cc1ccc(-c2ccccc2S(=O)(=O)NC(=O)OCCC(C)C)cc1F	9.52
